target_or_test_system: Vasopressin V1a receptor (Rattus norvegicus)
assay_name: Agonist activity in phenoxybenzamine-treated rat up to 0.16 mg/kg by Pressor assay
Activity calls are given as the source filed them. The calls are words filed in the database; no cut-off is given here.
observable: Activity

CC(C)C[C@H](NC(=O)[C@H](NC(=O)[C@@H]1CSSC[C@H](N)C(=O)N[C@@H](Cc2ccc(O)cc2)C(=O)N[C@@H](C(C)(C)C)C(=O)N[C@@H](CCC(N)=O)C(=O)N[C@@H](CC(N)=O)C(=O)N1)C(C)(C)C)C(=O)NCC(N)=O: inactive
CCc1ccc(C[C@@H]2NC(=O)CCSSC[C@@H](C(=O)NC(C)(C)C(=O)N[C@@H](CC(C)C)C(=O)NCC(N)=O)NC(=O)[C@H](CC(N)=O)NC(=O)[C@H](CCC(N)=O)NC(=O)[C@H]([C@@H](C)CC)NC2=O)cc1: inactive

====

target_or_test_system: UniProtKB P70536
assay_name: Agonist activity in rat uterus by uterotonic assay
Format: functional, tissue-based
Bridge positions count the residues as written; N and C are the ends. Square brackets hold non-standard residues; d marks the D form. Peptide text beside a SMILES is read from it. Aib = CC(C)(N)C(=O)O
observable: Activity (IU/mg)
Write the value in IU/mg as a bare number.

CC[C@H](C)[C@@H]1NC(=O)[C@H](Cc2ccc(O)cc2)NC(=O)[C@@H](N)CSSC[C@@H](C(=O)NC(C)(C)C(=O)N[C@@H](CC(C)C)C(=O)NCC(N)=O)NC(=O)[C@H](CC(N)=O)NC(=O)[C@H](CCC(N)=O)NC1=O (H-CYIQNC[Aib]LG-NH2; disulfide 1-6): 1.7

Could you share which Activity value was measured for CCOc1ccc(CC2NC(=O)CCSSC[C@@H](C(=O)N[C@H](C(=O)N[C@@H](CC(C)C)C(=O)NCC(N)=O)C(C)(C)C)NC(=O)[C@H](CC(N)=O)NC(=O)[C@H](CCC(N)=O)NC(=O)[C@H](C(C)(C)C)NC2=O)cc1 (stereo in doubt) ?
0

// next record CCc1ccc(C[C@@H]2NC(=O)CCSSC[C@@H](C(=O)NC(C)(C)C(=O)N[C@@H](CC(C)C)C(=O)NCC(N)=O)NC(=O)[C@H](CC(N)=O)NC(=O)[C@H](CCC(N)=O)NC(=O)[C@H]([C@@H](C)CC)NC2=O)cc1
0

Please do the same for CCOc1ccc(CC2NC(=O)CCSSC[C@@H](C(=O)N3Cc4ccccc4C[C@@H]3C(=O)N[C@@H](CC(C)C)C(=O)N3Cc4ccccc4C[C@@H]3C(N)=O)NC(=O)[C@H](CC(N)=O)NC(=O)[C@H](CCC(N)=O)NC(=O)[C@H]([C@@H](C)CC)NC2=O)cc1 (stereo in doubt) as well.
0

====

target_or_test_system: UniProt:P70536
assay_name: Agonist activity in rat uterus by uterotonic assay
Format: functional, tissue-based
Bridge positions count the residues as written; N and C are the ends. Square brackets hold non-standard residues; d marks the D form. Peptide text beside a SMILES is read from it. Orn = NCCC[C@H](N)C(=O)O; Mpa = O=C(O)CCS
List of Activity values.
Respond numerically; units are IU/mg and should not be typed.

Record excerpt, results attached:
CCOc1ccc(C[C@H]2NC(=O)CCSSC[C@@H](C(=O)N3CCC[C@H]3C(=O)N[C@@H](CCCN)C(=O)NCC(N)=O)NC(=O)[C@H](CC(N)=O)NC(=O)[C@H]([C@@H](C)O)NC(=O)[C@H]([C@@H](C)CC)NC2=O)cc1 [ATOSIBAN] ([Mpa][dY](Et)ITNCP[Orn]G-NH2; disulfide 1-6): 0
CC[C@H](C)[C@@H]1NC(=O)[C@H](Cc2ccc(O)cc2)NC(=O)CCSSC[C@@H](C(=O)N2Cc3ccccc3C[C@@H]2C(=O)N[C@@H](CC(C)C)C(=O)NCC(N)=O)NC(=O)[C@H](CC(N)=O)NC(=O)[C@H](CCC(N)=O)NC1=O: 1
CCc1ccc(C[C@H]2NC(=O)CCSSC[C@@H](C(=O)NC(C)(C)C(=O)N[C@@H](CC(C)C)C(=O)NCC(N)=O)NC(=O)[C@H](CC(N)=O)NC(=O)[C@H](CCC(N)=O)NC(=O)[C@H]([C@@H](C)CC)NC2=O)cc1: 0
CCOc1ccc(CC2NC(=O)CCSSC[C@@H](C(=O)NC(C)(C)C(=O)N[C@@H](CC(C)C)C(=O)NCC(N)=O)NC(=O)[C@H](CC(N)=O)NC(=O)[C@H](CCC(N)=O)NC(=O)[C@H]([C@@H](C)CC)NC2=O)cc1 (stereo in doubt): 0
CCOc1ccc(CC2NC(=O)CCSSC[C@@H](C(=O)N[C@H](C(=O)N[C@@H](CC(C)C)C(=O)NCC(N)=O)C(C)(C)C)NC(=O)[C@H](CC(N)=O)NC(=O)[C@H](CCC(N)=O)NC(=O)[C@H]([C@@H](C)CC)NC2=O)cc1 (stereo in doubt): 0
CC[C@H](C)[C@@H]1NC(=O)[C@H](Cc2ccc(O)cc2)NC(=O)[C@@H](N)CSSC[C@@H](C(=O)N2Cc3ccccc3C[C@H]2C(=O)N[C@@H](CC(C)C)C(=O)NCC(N)=O)NC(=O)[C@H](CC(N)=O)NC(=O)[C@H](CCC(N)=O)NC1=O: 2
CC[C@H](C)[C@@H]1NC(=O)[C@H](Cc2ccc(O)cc2)NC(=O)[C@@H](N)CSSC[C@@H](C(=O)N[C@@H](C(=O)N[C@@H](CC(C)C)C(=O)NCC(N)=O)C(C)(C)C)NC(=O)[C@H](CC(N)=O)NC(=O)[C@H](CCC(N)=O)NC1=O: 1.8

API: the following record is the query input.
Bench note: what Activity did CC[C@H](C)[C@@H]1NC(=O)[C@H](Cc2ccc(O)cc2)NC(=O)[C@@H](N)CSSC[C@@H](C(=O)N2CCC[C@H]2C(=O)N[C@@H](CC(C)C)C(=O)NCC(N)=O)NC(=O)[C@H](CC(N)=O)NC(=O)[C@H](CCC(N)=O)NC1=O show?
546

====

target_or_test_system: Oxytocin receptor (Rattus norvegicus)
Sequence (P70536 whole entry): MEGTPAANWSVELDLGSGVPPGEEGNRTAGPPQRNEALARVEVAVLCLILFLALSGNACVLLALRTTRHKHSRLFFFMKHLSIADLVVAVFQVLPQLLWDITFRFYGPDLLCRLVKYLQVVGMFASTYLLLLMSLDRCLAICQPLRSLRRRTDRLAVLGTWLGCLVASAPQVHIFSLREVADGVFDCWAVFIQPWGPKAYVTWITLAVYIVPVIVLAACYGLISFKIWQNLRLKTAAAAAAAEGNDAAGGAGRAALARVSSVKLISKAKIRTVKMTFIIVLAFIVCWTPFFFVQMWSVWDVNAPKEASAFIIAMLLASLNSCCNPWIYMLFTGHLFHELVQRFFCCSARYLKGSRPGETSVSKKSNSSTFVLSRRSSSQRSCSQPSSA
assay_name: Antagonist activity in rat uterus by uterotonic assay
Format: functional, tissue-based
experimental_parameters: read-out: pA2 (converted)
Reported Kb values follow for various molecules
# output: bare number, implied unit nM

Below, each entry is followed by its recorded Kb result.
CCOc1ccc(CC2NC(=O)CCSSC[C@@H](C(=O)N3Cc4ccccc4C[C@@H]3C(=O)N[C@@H](CC(C)C)C(=O)NC(C)(C)C(N)=O)NC(=O)[C@H](CC(N)=O)NC(=O)[C@H](CCC(N)=O)NC(=O)[C@H]([C@@H](C)CC)NC2=O)cc1 (stereo in doubt): 4.9
CC[C@H](C)[C@@H]1NC(=O)[C@H](Cc2ccc(O)cc2)NC(=O)[C@@H](N)CSSC[C@@H](C(=O)N2Cc3ccccc3C[C@H]2C(=O)N[C@@H](CC(C)C)C(=O)NCC(N)=O)NC(=O)[C@H](CC(N)=O)NC(=O)[C@H](CCC(N)=O)NC1=O: 2510
CCOc1ccc(CC2NC(=O)CCSSC[C@@H](C(=O)N3Cc4ccccc4C[C@H]3C(=O)N[C@@H](CC(C)C)C(=O)NCC(N)=O)NC(=O)[C@H](CC(N)=O)NC(=O)[C@H](CCC(N)=O)NC(=O)[C@H]([C@@H](C)CC)NC2=O)cc1 (stereo in doubt): 15.8
CCOc1ccc(CC2NC(=O)CCSSC[C@@H](C(=O)N[C@H](C(=O)N[C@@H](CC(C)C)C(=O)NCC(N)=O)C(C)(C)C)NC(=O)[C@H](CC(N)=O)NC(=O)[C@H](CCC(N)=O)NC(=O)[C@H]([C@@H](C)CC)NC2=O)cc1 (stereo in doubt): 11.7
CC(C)C[C@H](NC(=O)[C@@H](NC(=O)[C@@H]1CSSC[C@H](N)C(=O)N[C@@H](Cc2ccc(O)cc2)C(=O)N[C@@H](C(C)(C)C)C(=O)N[C@@H](CCC(N)=O)C(=O)N[C@@H](CC(N)=O)C(=O)N1)C(C)(C)C)C(=O)NCC(N)=O: 741
CCOc1ccc(CC2NC(=O)CCSSC[C@@H](C(=O)N[C@H](C(=O)N[C@@H](CC(C)C)C(=O)NCC(N)=O)C(C)(C)C)NC(=O)[C@H](CC(N)=O)NC(=O)[C@H](CCC(N)=O)NC(=O)[C@H](C(C)(C)C)NC2=O)cc1 (stereo in doubt): 355

Any idea what Kb was measured for CC[C@H](C)[C@@H]1NC(=O)[C@H]2Cc3ccccc3CN2C(=O)CCSSC[C@@H](C(=O)NC(C)(C)C(=O)N[C@@H](CC(C)C)C(=O)NCC(N)=O)NC(=O)[C@H](CC(N)=O)NC(=O)[C@H](CCC(N)=O)NC1=O ?
123

Now the molecule CCOc1ccc(CC2NC(=O)CCSSC[C@@H](C(=O)NC(C)(C)C(=O)N[C@@H](CC(C)C)C(=O)NCC(N)=O)NC(=O)[C@H](CC(N)=O)NC(=O)[C@H](CCC(N)=O)NC(=O)[C@H]([C@@H](C)CC)NC2=O)cc1 (stereo in doubt)
17.8
